I'd appreciate it if you could supply Cp values for the items below.
# System: Rattus norvegicus
# assay_method_text: Drug level in anesthetized Sprague-Dawley rat plasma
# Type: ADME, organism-based
# details: in vivo
Supply the numeric figure in ng/mL, leaving out any unit text.

Record "COc1cc2oc(C(=O)NC3CCN(Cc4ccc5c(c4)OCO5)CC3)cc(=O)c2cc1F" / Rattus norvegicus, Cp recorded as 105000

Tested on Rattus norvegicus, the item "COc1ccc2c(=O)cc(C(=O)NC3CCN(Cc4ccc5c(c4)OCO5)CC3)oc2c1" showed Cp equal to 29000

Entry "O=C(NC1CCN(Cc2ccc3c(c2)OCO3)CC1)c1cc(=O)c2cc(F)c(F)cc2o1" : Cp on Rattus norvegicus = 34000

Field Cp (system: Rattus norvegicus) for entry "O=C(NC1CCN(Cc2ccc3c(c2)OCO3)CC1)c1cc(=O)c2ccc(F)cc2o1" = 62000

Item: "O=C(NC1CCN(Cc2ccc3c(c2)OCO3)CC1)c1cc(=O)c2cc(Cl)c(Cl)cc2o1" | System: Rattus norvegicus | Cp: 20000

Ref: ChEMBL document CHEMBL1137327
